Target: T1, human ICOS-hFc (homodimeric, bivalent) (human, UniProt Q9Y6W8 21-141)
T1 construct: also called hICOS-Fc; hICOS-hFc; not shown: human IgG1 Fc (IgG1 backbone)
T1 sequence: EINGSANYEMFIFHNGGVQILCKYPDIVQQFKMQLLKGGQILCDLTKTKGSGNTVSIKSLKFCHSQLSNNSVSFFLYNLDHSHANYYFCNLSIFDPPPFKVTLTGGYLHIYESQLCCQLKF
Experiment: BLI (Octet RED96), full-length IgG vs homodimeric ICOS-Fc (avid)
Each record here notes measured kon.
Measurement Name: kon (M⁻¹ s⁻¹)

binder="16G10 (antibody, V domains shown, Armenian hamster monoclonal tested as IgG; also called hamster anti-ICOS 16G10) VH: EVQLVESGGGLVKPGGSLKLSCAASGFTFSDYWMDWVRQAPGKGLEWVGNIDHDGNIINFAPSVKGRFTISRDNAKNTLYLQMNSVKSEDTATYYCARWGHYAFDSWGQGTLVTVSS VL: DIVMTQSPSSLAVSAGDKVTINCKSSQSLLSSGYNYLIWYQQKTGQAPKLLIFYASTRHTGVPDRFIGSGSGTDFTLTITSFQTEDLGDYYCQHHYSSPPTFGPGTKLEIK" result_value=1.01e+06
binder="7F12 (antibody, V domains shown, Armenian hamster monoclonal tested as IgG; also called hamster anti-ICOS 7F12) VH: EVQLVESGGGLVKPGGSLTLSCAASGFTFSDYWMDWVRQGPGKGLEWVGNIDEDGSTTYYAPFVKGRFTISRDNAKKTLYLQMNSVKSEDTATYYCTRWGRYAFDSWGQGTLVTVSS VL: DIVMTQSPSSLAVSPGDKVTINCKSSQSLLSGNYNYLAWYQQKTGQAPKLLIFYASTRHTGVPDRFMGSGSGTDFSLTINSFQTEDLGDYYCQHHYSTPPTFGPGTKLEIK" result_value=674000

These measurements were taken from patent US20180371091A1.
